- Test System: Histone deacetylase 2 (Homo sapiens)
- Sequence (Q92769 whole entry): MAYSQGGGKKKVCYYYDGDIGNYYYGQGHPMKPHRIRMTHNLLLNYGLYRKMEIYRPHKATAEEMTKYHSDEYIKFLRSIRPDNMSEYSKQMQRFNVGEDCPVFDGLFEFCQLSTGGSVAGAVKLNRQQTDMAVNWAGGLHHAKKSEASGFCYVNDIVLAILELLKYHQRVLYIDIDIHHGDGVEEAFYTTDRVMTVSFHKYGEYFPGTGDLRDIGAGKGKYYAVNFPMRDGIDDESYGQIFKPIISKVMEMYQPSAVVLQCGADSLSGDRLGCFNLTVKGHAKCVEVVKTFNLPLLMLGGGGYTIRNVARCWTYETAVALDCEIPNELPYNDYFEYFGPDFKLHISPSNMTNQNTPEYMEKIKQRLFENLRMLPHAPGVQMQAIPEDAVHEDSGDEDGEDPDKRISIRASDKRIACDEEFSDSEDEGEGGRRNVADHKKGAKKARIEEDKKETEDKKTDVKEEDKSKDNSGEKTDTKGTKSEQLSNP
Quantity Measured: IC50 (nM)

O=CN(O)CCCCCC(C(=O)Nc1ccc2ncccc2c1)C(=O)Nc1ccc2ncccc2c1 270

(I) O=CN(O)CCCCCNC(=O)c1ccc2ccccc2c1
(II) O=CN(O)CCCCCNC(=O)CCc1ccccc1
Input: API: POST /compare with I and II ; response names the item with higher IC50. Answer by quoting the chosen item's label.
Output: II

* * *

- Test System: Histone deacetylase 8 (Homo sapiens)
- Sequence (Q9BY41 whole entry): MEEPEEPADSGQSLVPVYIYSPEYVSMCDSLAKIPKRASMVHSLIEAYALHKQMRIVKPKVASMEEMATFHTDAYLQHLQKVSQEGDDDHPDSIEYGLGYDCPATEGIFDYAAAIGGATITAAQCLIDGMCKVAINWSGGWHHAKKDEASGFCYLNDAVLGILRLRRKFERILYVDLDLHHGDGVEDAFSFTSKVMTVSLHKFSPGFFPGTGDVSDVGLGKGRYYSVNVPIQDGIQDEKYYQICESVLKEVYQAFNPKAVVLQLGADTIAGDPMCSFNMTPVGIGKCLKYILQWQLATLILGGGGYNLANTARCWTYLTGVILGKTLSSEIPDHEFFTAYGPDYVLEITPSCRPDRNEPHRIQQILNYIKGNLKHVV
Quantity Measured: IC50 (µM)

O=CN(O)CCCCCNC(=O)CCc1ccccc1 9.7
O=CN(O)CCCCCC(C(=O)Nc1cnc2ccccc2c1)C(=O)Nc1cnc2ccccc2c1 0.69
O=CN(O)CCCCCC(=O)Nc1ccccc1 6.8
O=CN(O)CCCCCC(C(=O)Nc1ccc2ncccc2c1)C(=O)Nc1ccc2ncccc2c1 0.8
